Target Of Assay: 11-beta-hydroxysteroid dehydrogenase type 2 (Homo sapiens, UniProt P80365)
Sequence (P80365 whole entry): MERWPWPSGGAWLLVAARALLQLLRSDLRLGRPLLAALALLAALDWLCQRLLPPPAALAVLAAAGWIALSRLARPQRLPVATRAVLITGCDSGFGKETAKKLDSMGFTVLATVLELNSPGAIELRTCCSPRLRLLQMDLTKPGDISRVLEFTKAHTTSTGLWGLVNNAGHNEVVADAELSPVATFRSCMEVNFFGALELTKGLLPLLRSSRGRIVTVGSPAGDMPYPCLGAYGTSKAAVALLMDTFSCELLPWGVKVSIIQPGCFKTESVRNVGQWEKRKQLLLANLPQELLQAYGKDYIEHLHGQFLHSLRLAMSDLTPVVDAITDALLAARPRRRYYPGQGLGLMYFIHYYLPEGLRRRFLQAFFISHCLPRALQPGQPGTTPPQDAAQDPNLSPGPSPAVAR
Procedure Details: Inhibition of human 11beta-HSD2

| Compound | Target Of Assay | IC50 |
| --- | --- | --- |
| COc1ccc(-c2cnc(N3CCN(C(=O)N4CCC(c5cn[nH]c5)C4)c4ccccc43)nc2)cc1 (stereo unspecified) | 11-beta-hydroxysteroid dehydrogenase type 2 (Homo sapiens, UniProt P80365) | > 10 µM |

----------
Procedure Details: AUC (0 to infinity) in rat plasma at 10 mg/kg, po
Format: ADME, organism-based
Parameters: time infinity, dose 10 mg/kg, route oral

| Record Smiles | AUC(0-inf) |
| --- | --- |
| CC(C)(C)N1CCN(c2ccc(N3CCN(C(=O)N[C@H]4C5CC6CC4C[C@](C(N)=O)(C6)C5)c4ccccc43)nc2)CC1 | 0.58 µg·h/mL |

----------
Target Of Assay: 11-beta-hydroxysteroid dehydrogenase 1 (Rattus norvegicus, UniProt P16232)
Sequence (P16232 whole entry): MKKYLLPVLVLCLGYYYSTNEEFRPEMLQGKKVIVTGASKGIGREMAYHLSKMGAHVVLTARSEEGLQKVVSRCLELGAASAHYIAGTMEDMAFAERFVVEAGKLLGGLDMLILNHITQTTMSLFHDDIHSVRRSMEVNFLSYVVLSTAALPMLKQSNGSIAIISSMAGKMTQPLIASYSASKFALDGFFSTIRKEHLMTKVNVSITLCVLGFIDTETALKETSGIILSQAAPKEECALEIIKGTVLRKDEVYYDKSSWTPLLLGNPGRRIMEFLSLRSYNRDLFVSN
Note to self: use y only for IC50 readings below 70 nM; a reading exactly at 70 nM still gets n.

| Molecule | Target Of Assay | Assigned Label |
| --- | --- | --- |
| NC(=O)[C@]12CC3CC(C1)[C@@H](NC(=O)N1CCN(c4ccc(N5CCN(S(=O)(=O)C6CC6)CC5)cn4)c4ccccc41)C(C3)C2 | 11-beta-hydroxysteroid dehydrogenase 1 (Rattus norvegicus, UniProt P16232) | y |
| COc1ccc(-c2cnc(N3CCN(C(=O)N4CCC(c5cn[nH]c5)C4)c4ccccc43)nc2)cc1 (configuration not stated) | 11-beta-hydroxysteroid dehydrogenase 1 (Rattus norvegicus, UniProt P16232) | n |
| CC(=O)N1CCN(c2ccc(N3CCN(C(=O)N[C@H]4C5CC6CC4C[C@](O)(C6)C5)c4ccccc43)nc2)CC1 | 11-beta-hydroxysteroid dehydrogenase 1 (Rattus norvegicus, UniProt P16232) | y |
| CS(=O)(=O)N1CCN(c2cnc(N3CCN(C(=O)N[C@H]4C5CC6CC4C[C@](O)(C6)C5)c4ccccc43)nc2)CC1 | 11-beta-hydroxysteroid dehydrogenase 1 (Rattus norvegicus, UniProt P16232) | y |
| CS(=O)(=O)N1CCN(c2ccc(N3CCN(C(=O)N[C@H]4C5CC6CC4C[C@](O)(C6)C5)c4ccccc43)cc2)CC1 | 11-beta-hydroxysteroid dehydrogenase 1 (Rattus norvegicus, UniProt P16232) | n |
| O=C(N[C@H]1C2CC3CC1C[C@](O)(C3)C2)N1CCN(c2ccc(N3CCN(S(=O)(=O)C4CC4)CC3)cn2)c2ccccc21 | 11-beta-hydroxysteroid dehydrogenase 1 (Rattus norvegicus, UniProt P16232) | y |

----------
Quick list: Stability per entry.
Test system: Liver microsomes
Procedure Details: Metabolic stability in human liver microsomes
Format: ADME, Microsome

| Record Smiles | Stability, % |
| --- | --- |
| NC(=O)[C@]12CC3CC(C1)[C@@H](NC(=O)N1CCN(c4ccc(N5CCN(S(=O)(=O)C6CC6)CC5)cn4)c4ccccc41)C(C3)C2 | 1 |
| CS(=O)(=O)N1CCN(c2ccc(N3CCN(C(=O)N[C@H]4C5CC6CC4C[C@](O)(C6)C5)c4ccccc43)cc2)CC1 | 2 |
| CC(C)(C)N1CCN(c2ccc(N3CCN(C(=O)N[C@H]4C5CC6CC4C[C@](O)(C6)C5)c4ccccc43)nc2)CC1 | 14 |
| CS(=O)(=O)N1CCN(c2cnc(N3CCN(C(=O)N[C@H]4C5CC6CC4C[C@](O)(C6)C5)c4ccccc43)nc2)CC1 | 9 |
| O=C(N[C@H]1C2CC3CC1C[C@](O)(C3)C2)N1CCN(c2ccc(N3CCN(S(=O)(=O)C4CC4)CC3)cn2)c2ccccc21 | 9 |
